# target system: CCL2 K19A K42A (Homo sapiens) (UniProt P13500)
# Sequence (P13500 24-99 K42A): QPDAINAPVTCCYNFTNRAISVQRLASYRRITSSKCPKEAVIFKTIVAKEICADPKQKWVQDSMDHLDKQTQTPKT
# experiment notes: SPR
# test context: all L-ribonucleotides (L-RNA, mirror image); SPR (Biacore 2000), chemokine immobilized on CM4/CM5, physiological running buffer, 37 C; complex formation in 20 mM HEPES pH 7.4, 100 mM NaCl, 5 mM KCl, 1 mM …
recorded endpoint: Kd (µM)
Numbers only, in µM.

What value of Kd has been recorded for this entry: GCACGUCCCUCACCGGUGCAAGUGAAGCCGUGGCUCUGCG [NOX-E36 L-aptamer (Spiegelmer, without PEG)]
4.13

###

# target system: CCL2 S21P S44P (Homo sapiens) (UniProt P13500)
# Sequence (P13500 24-99 S44P): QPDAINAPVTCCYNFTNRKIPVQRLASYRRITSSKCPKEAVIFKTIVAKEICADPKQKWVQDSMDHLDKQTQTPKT
# experiment notes: SPR
# test context: all L-ribonucleotides (L-RNA, mirror image); SPR (Biacore 2000), chemokine immobilized on CM4/CM5, physiological running buffer, 37 C; complex formation in 20 mM HEPES pH 7.4, 100 mM NaCl, 5 mM KCl, 1 mM …
recorded endpoint: pKd
Numbers only, as −log10 of the molar value.

What value of pKd has been recorded for this entry: GCACGUCCCUCACCGGUGCAAGUGAAGCCGUGGCUCUGCG [NOX-E36 L-aptamer (Spiegelmer, without PEG)]
8.10
